B1: glmS ribozyme (parent)
chain: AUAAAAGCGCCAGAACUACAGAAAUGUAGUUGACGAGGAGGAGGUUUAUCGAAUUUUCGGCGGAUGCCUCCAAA

Variants of: B1
Test: self-cleavage kobs at 2500 uM GlcN6P; higher = faster cleavage; RNA array
Details: with glucosamine-6-phosphate
Variants at the floor of the assay were thinned out.
PARAMETER MEASURED: self-cleavage kobs at 2500 uM GlcN6P (s⁻¹)
Your answer should be a plain number; it is taken to be in s⁻¹.

// G13U U47G C67A : self-cleavage kobs at 2500 uM GlcN6P value = 7.8e-05

// C58U C67U U69A : self-cleavage kobs at 2500 uM GlcN6P value = 0.000214

// U31A G32C : self-cleavage kobs at 2500 uM GlcN6P value = 0.000141

// U46C U69C : self-cleavage kobs at 2500 uM GlcN6P value = 0.00117

// G59U C70U : self-cleavage kobs at 2500 uM GlcN6P value = 6.69e-05

// A12G U30C : self-cleavage kobs at 2500 uM GlcN6P value = 4.54e-05

// C16U U46G : self-cleavage kobs at 2500 uM GlcN6P value = 0.00323

// U56G G66C : self-cleavage kobs at 2500 uM GlcN6P value = 0.000244

// C16G G29C U31G : self-cleavage kobs at 2500 uM GlcN6P value = 0.00447

// A39C G40A : self-cleavage kobs at 2500 uM GlcN6P value = 0.000126

// U45C U55C : self-cleavage kobs at 2500 uM GlcN6P value = 0.00199
